Where these numbers come from: patent US12091426B2

SYSTEM_NAME: HPK1 (Homo sapiens)
Construct: A HiBiT tag was introduced by CRISPR on the N terminus of HPK1 in Jurkat cells; host or cells: Jurkat cells (ATCC TIB-152), monoclonal line with CRISPR knock-in of HiBiT at the endogenous HPK1 locus
Sequence (Q92918 whole entry): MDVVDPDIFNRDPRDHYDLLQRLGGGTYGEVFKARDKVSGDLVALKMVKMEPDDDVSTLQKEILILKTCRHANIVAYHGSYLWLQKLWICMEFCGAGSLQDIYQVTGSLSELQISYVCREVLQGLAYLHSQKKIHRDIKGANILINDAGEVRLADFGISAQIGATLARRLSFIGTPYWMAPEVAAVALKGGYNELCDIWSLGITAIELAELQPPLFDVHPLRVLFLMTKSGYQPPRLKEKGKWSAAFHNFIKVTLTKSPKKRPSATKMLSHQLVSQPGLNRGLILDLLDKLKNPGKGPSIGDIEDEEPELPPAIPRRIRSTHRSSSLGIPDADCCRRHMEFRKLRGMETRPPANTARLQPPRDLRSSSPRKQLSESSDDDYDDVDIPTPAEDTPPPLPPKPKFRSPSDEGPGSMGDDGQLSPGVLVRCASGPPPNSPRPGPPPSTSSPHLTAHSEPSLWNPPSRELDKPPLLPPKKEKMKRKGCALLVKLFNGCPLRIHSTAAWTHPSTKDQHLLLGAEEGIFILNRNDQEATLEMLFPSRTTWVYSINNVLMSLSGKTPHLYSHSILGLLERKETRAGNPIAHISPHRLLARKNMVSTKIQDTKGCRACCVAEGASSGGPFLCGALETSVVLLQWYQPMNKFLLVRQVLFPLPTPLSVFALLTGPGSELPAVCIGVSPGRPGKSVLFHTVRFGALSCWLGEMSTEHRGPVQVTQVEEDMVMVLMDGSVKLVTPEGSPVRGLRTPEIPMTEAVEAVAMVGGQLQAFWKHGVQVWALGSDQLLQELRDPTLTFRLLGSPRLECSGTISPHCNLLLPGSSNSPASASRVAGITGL
PROCEDURE_SUMMARY: HPK1 Cellular HiBit Degradation Assay
Format: cell-based
CONDITIONS: HiBiT HPK1 Jurkat cells, 24 hrs; concentration at which 50% of HPK1 was remaining; read-out: DC50 Category
Exercise: state measured DC50 for each of the compounds provided.

State its DC50: Cc1cc(C2CCC(=O)NC2=O)ccc1O[C@H]1CC[C@H](C(=O)N2CCC(C)(C(=O)N3CCC4(CC3)C(=O)N([C@H]3C[C@@H](N5CCCCC5)C3)c3cc(-c5cc6ncn(C(C)C)c6c(NC6CC6)n5)ccc34)CC2)CC1 (mixture of isomers) [Example 156]
100 to 500 nM

Return the recorded DC50 value; entry: CC(C)n1cnc2cc(-c3ccc4c(c3)N([C@H]3C[C@@H](N5CCCCC5)C3)C(=O)C43CCN(C(=O)[C@@H]4[C@H]5CCN(C(=O)C6CCN(c7ccc(C8CCC(=O)NC8=O)cn7)CC6)[C@H]54)CC3)nc(Nc3ccccc3F)c21 (mixture of isomers) [Example 266]
< 100 nM

Item CC(C)n1cnc2cc(-c3ccc4c(c3)N([C@H]3C[C@@H](N5CCCCC5)C3)C(=O)C43CCN(C(=O)C4CCN(C(=O)C5CCN(c6ccc7c(c6)C(=O)N(C6CCC(=O)NC6=O)C7=O)CC5)CC4)CC3)nc(NC3CC3)c21 (mixture of isomers) [Example 86] : provide DC50
100 to 500 nM

Hello, please tell me recorded DC50 for this one: CC(C)n1cnc2cc(-c3ccc4c(c3)N([C@H]3C[C@@H](N5CCCCC5)C3)C(=O)C43CCN(C(=O)[C@@H]4C[C@H]5CC[C@@H](C4)N5C(=O)C4CCN(c5ccc(C6CCC(=O)NC6=O)cc5)CC4)CC3)nc(NC3CC3)c21 (mixture of isomers) [Example 262]
< 100 nM
